Sourced from patent US7629318B2

biological target: Cathepsin B1 (EC 3.4.22.1 from bovine spleen) (Bos taurus, UniProt P07688); settings: Cathepsin B, 4 h
Numbered stars: 1 amine (or outer) side, 2 acyl side, 3 side chain; on linkers, the order of the positions; unused ones are H or OH. Square brackets hold non-standard residues; d marks the D form. Peptide text beside a SMILES is read from it. * marks the point of attachment. ξ: configuration not given here. Gly(1-amidinopiperidin-4-yl) = N=C(N)N1CCC([C@H](N)C(=O)O)CC1; Tetrahydroisoquinolin(2-yl) = c1ccc2c(c1)CCN(*)C2; X1 = CC(C)c1oc([C@H](CO)N[*:1])nc1C(=O)[*:2]; Pro(3R-Ph) = O=C(O)[C@H]1NCC[C@@H]1c1ccccc1; Met(O) = CS(=O)CC[C@H](N)C(=O)O; Tic = O=C(O)[C@@H]1Cc2ccccc2CN1; Cha = N[C@@H](CC1CCCCC1)C(=O)O; ξDisc = O=C(O)C1NCc2ccccc21; Nle = CCCC[C@H](N)C(=O)O; X2 = OCCOCCN(Cc1ccccc1)*; X6 = OCCN(CCc1ccccc1)*
observedProperty: Stability (Arbitrary units) Cath B 4 h

{"compound": "CC(=O)N[C@@H](CC1CCCCC1)C(=O)N[C@H](C(=O)N1Cc2ccccc2C[C@H]1C(=O)N[C@@H](CC[S+](C)[O-])C(=O)N1CC[C@H](c2ccccc2)[C@H]1C(=O)N[C@@H](CO)c1nc(C(=O)N(C)C)c(C(C)C)o1)C1CCN(C(=N)N)CC1 (stereo partly drawn) [Compound P47] (Ac-[Cha][Gly(1-amidinopiperidin-4-yl)][Tic][Met(O)][Pro(3R-Ph)][X1]-NMe2)", "subjectOfTest": "Cathepsin B1 (EC 3.4.22.1 from bovine spleen) (Bos taurus, UniProt P07688)", "measured": 100}
{"compound": "CCCC[C@H](NC(=O)[C@@H]1Cc2ccccc2CN1C(=O)[C@H](CCCNC(=N)N)NC(=O)[C@H](CC1CCCCC1)NC(C)=O)C(=O)N1CC[C@H](c2ccccc2)[C@H]1C(=O)N[C@@H](CO)c1nc(C(=O)N(C)C)c(C(C)C)o1 [Compound P51] (Ac-[Cha]R[Tic][Nle][Pro(3R-Ph)][X1]-NMe2)", "subjectOfTest": "Cathepsin B1 (EC 3.4.22.1 from bovine spleen) (Bos taurus, UniProt P07688)", "measured": 103}
{"compound": "CCCC[C@H](NC(=O)C1c2ccccc2CN1C(=O)[C@@H](NC(=O)[C@H](CC1CCCCC1)NC(C)=O)C1CCN(C(=N)N)CC1)C(=O)N(C)Cc1ccccc1 (single isomer, unassigned) [Compound P78-1]", "subjectOfTest": "Cathepsin B1 (EC 3.4.22.1 from bovine spleen) (Bos taurus, UniProt P07688)", "measured": 100}
{"compound": "CSCC[C@H](NC(=O)[C@@H]1Cc2ccccc2CN1C(=O)[C@H](CCCNC(=N)N)NC(=O)[C@H](CC1CCCCC1)NC(C)=O)C(=O)N(CCO)CCc1ccccc1 [Compound P85, Ac-Cha-Arg-Tic-Met-N(CH2CH2OH)CH2CH2Ph] (Ac-[Cha]R[Tic]M-X6)", "subjectOfTest": "Cathepsin B1 (EC 3.4.22.1 from bovine spleen) (Bos taurus, UniProt P07688)", "measured": 108}
{"compound": "CSCC[C@H](NC(=O)C1c2ccccc2CN1C(=O)[C@@H](NC(=O)[C@H](CC1CCCCC1)NC(C)=O)C1CCN(C(=N)N)CC1)C(N)=O (stereo partly drawn) [Compound P66-1, Ac-Cha-Gpg-Disc-Met-NH2] (Ac-[Cha][Gly(1-amidinopiperidin-4-yl)][ξDisc]M-NH2)", "subjectOfTest": "Cathepsin B1 (EC 3.4.22.1 from bovine spleen) (Bos taurus, UniProt P07688)", "measured": 102}
{"compound": "CCCC[C@H](NC(=O)[C@@H]1Cc2ccccc2CN1C(=O)[C@@H](NC(=O)[C@H](CC1CCCCC1)NC(C)=O)C1CCN(C(=N)N)CC1)C(=O)N(CCOCCO)Cc1ccccc1 [Compound P101, Ac-Cha-Gpg-Tic-Nle-N(Bn)CH2CH2OCH2CH2OH] (Ac-[Cha][Gly(1-amidinopiperidin-4-yl)][Tic][Nle]-X2)", "subjectOfTest": "Cathepsin B1 (EC 3.4.22.1 from bovine spleen) (Bos taurus, UniProt P07688)", "measured": 100}
{"compound": "CCCC[C@H](NC(=O)[C@@H]1Cc2ccccc2CN1C(=O)[C@@H](NC(=O)[C@H](CC1CCCCC1)NC(C)=O)C1CCN(C(=N)N)CC1)C(=O)N1CCc2ccccc2C1 [Compound P77] (Ac-[Cha][Gly(1-amidinopiperidin-4-yl)][Tic][Nle]-{Tetrahydroisoquinolin(2-yl)})", "subjectOfTest": "Cathepsin B1 (EC 3.4.22.1 from bovine spleen) (Bos taurus, UniProt P07688)", "measured": 107}
{"compound": "CSCC[C@H](NC(=O)[C@@H]1Cc2ccccc2CN1C(=O)[C@H](CCCNC(=N)N)NC(=O)[C@H](CC1CCCCC1)NC(C)=O)C(=O)N1CC[C@H](c2ccccc2)[C@H]1C(N)=O [Compound P31, Ac-Cha-Arg-Tic-Met-βPhPro-NH2] (Ac-[Cha]R[Tic]M[Pro(3R-Ph)]-NH2)", "subjectOfTest": "Cathepsin B1 (EC 3.4.22.1 from bovine spleen) (Bos taurus, UniProt P07688)", "measured": 102}
{"compound": "CSCC[C@H](NC(=O)C1c2ccccc2CN1C(=O)[C@@H](NC(=O)[C@H](CC1CCCCC1)NC(C)=O)C1CCN(C(=N)N)CC1)C(=O)N1CC[C@H](c2ccccc2)[C@H]1C(=O)N[C@@H](CO)c1nc(C(=O)N(C)C)c(C(C)C)o1 (stereo partly drawn) [Compound P41-1] (Ac-[Cha][Gly(1-amidinopiperidin-4-yl)][ξDisc]M[Pro(3R-Ph)][X1]-NMe2)", "subjectOfTest": "Cathepsin B1 (EC 3.4.22.1 from bovine spleen) (Bos taurus, UniProt P07688)", "measured": 104}
{"compound": "CSCC[C@H](NC(=O)C1c2ccccc2CN1C(=O)[C@H](CCCNC(=N)N)NC(=O)[C@H](CC1CCCCC1)NC(C)=O)C(=O)N1CC[C@H](c2ccccc2)[C@H]1C(=O)N[C@@H](CO)c1nc(C(=O)N(C)C)c(C(C)C)o1 (stereo partly drawn) [Compound P40-1] (Ac-[Cha]R[ξDisc]M[Pro(3R-Ph)][X1]-NMe2)", "subjectOfTest": "Cathepsin B1 (EC 3.4.22.1 from bovine spleen) (Bos taurus, UniProt P07688)", "measured": 99}

* * *

target: DR4Dw4 (DRA1*0101 DRB1*0401) (Homo sapiens, UniProt P01903+P01911, A100K/A169T/F76Y/I96L/K127E/L162R/M171V/N62H/P40V/Q125Y/R42H/S133A/S149N/S66Y/V115G/V209L/W38E); experiment: Competitive binding to MHC-II protein DR4Dw4
Numbered stars: 1 amine (or outer) side, 2 acyl side, 3 side chain; on linkers, the order of the positions; unused ones are H or OH. Square brackets hold non-standard residues; d marks the D form. Peptide text beside a SMILES is read from it. * marks the point of attachment. ξ: configuration not given here. Gly(1-amidinopiperidin-4-yl) = N=C(N)N1CCC([C@H](N)C(=O)O)CC1; X1 = CC(C)c1oc([C@H](CO)N[*:1])nc1C(=O)[*:2]; Pro(3R-Ph) = O=C(O)[C@H]1NCC[C@@H]1c1ccccc1; Met(O) = CS(=O)CC[C@H](N)C(=O)O; Tic = O=C(O)[C@@H]1Cc2ccccc2CN1; Cha = N[C@@H](CC1CCCCC1)C(=O)O; NHPhenethyl = c1ccc(CCN*)cc1; ξDisc = O=C(O)C1NCc2ccccc21; Nle = CCCC[C@H](N)C(=O)O; X6 = OCCN(CCc1ccccc1)*
IC50 reference

{"compound": "CSCC[C@H](NC(=O)[C@@H]1Cc2ccccc2CN1C(=O)[C@H](CCCNC(=N)N)NC(=O)[C@H](CC1CCCCC1)NC(C)=O)C(=O)N(CCO)CCc1ccccc1 [Compound P85, Ac-Cha-Arg-Tic-Met-N(CH2CH2OH)CH2CH2Ph] (Ac-[Cha]R[Tic]M-X6)", "unit": "nM", "IC50": 13000}
{"compound": "CCCC[C@H](NC(=O)[C@@H]1Cc2ccccc2CN1C(=O)[C@H](CCCNC(=N)N)NC(=O)[C@H](CC1CCCCC1)NC(C)=O)C(=O)NCCc1ccccc1 [Compound P82, Ac-Cha-Arg-Tic-Nle-N(H)CH2CH2Ph] (Ac-[Cha]R[Tic][Nle]-NHPhenethyl)", "unit": "nM", "IC50": 18000}
{"compound": "CC(=O)N[C@@H](CC1CCCCC1)C(=O)N[C@H](C(=O)N1Cc2ccccc2C[C@H]1C(=O)N[C@@H](CC[S+](C)[O-])C(=O)N1CC[C@H](c2ccccc2)[C@H]1C(=O)N[C@@H](CO)c1nc(C(=O)N(C)C)c(C(C)C)o1)C1CCN(C(=N)N)CC1 (stereo partly drawn) [Compound P47] (Ac-[Cha][Gly(1-amidinopiperidin-4-yl)][Tic][Met(O)][Pro(3R-Ph)][X1]-NMe2)", "unit": "nM", "IC50": 180}
{"compound": "CSCC[C@H](NC(=O)C1c2ccccc2CN1C(=O)[C@H](CCCNC(=N)N)NC(=O)[C@H](CC1CCCCC1)NC(C)=O)C(N)=O (stereo partly drawn) [Compound P12-1, Ac-Cha-Arg-Disc-Met-NH2] (Ac-[Cha]R[ξDisc]M-NH2)", "unit": "nM", "IC50": 370}
{"compound": "CSCC[C@H](NC(=O)C1c2ccccc2CN1C(=O)[C@@H](NC(=O)[C@H](CC1CCCCC1)NC(C)=O)C1CCN(C(=N)N)CC1)C(N)=O (stereo partly drawn) [Compound P66-1, Ac-Cha-Gpg-Disc-Met-NH2] (Ac-[Cha][Gly(1-amidinopiperidin-4-yl)][ξDisc]M-NH2)", "unit": "nM", "IC50": 290}
